The entries below are paired with their reported IC50.
# Tested On: DNA dC->dU-editing enzyme APOBEC-3A (Homo sapiens)
# Sequence (P31941 whole entry): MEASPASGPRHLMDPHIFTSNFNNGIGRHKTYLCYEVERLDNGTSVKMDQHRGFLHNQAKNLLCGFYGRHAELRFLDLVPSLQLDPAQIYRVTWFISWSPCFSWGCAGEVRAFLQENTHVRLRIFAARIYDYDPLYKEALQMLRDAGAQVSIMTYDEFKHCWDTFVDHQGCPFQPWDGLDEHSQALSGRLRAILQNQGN
# Assay Overview: Dose Response confirmation of small molecule APOBEC3A DNA Deaminase Inhibitors via a fluorescence-based single-stranded DNA deaminase assay. [Related pubchem assays (depositor defined):AID493011, AID493024]
# Assay type: functional
Active and inactive are the calls of the source. No rule for the calls is given here.
Measure: IC50

>>> observed_result("CCN1C(NCCc2c[nH]c3ccccc23)=N[C@@H](c2ccccc2)[C@H](C(=O)OC)[C@H]1C")
"6.29 µM (active)"
>>> observed_result("CC(C)[N+](C)(C)CC(O)CN(c1ccccc1)c1ccccc1 (centres undefined)")
"3.2 µM (active)"
>>> observed_result("O=C(COC(=O)c1cc2c(s1)CCC2)Nc1ccc(F)cc1")
"19.6 µM (active)"
>>> observed_result("Nc1nc2c(s1)CCCCCCCCCC2")
"7.08 µM (active)"
